Biological target: Muscarinic acetylcholine receptor M4 (Homo sapiens)
Assay: Cooperativity with NMS at human muscarinic acetylcholine receptor M4
reported_endpoint: Cooperativity

INSERT INTO measurements (compound, target_system, inequality_sign, value_reported) VALUES
  ('COc1cc2c(cc1OC)[C@@]13CC[N+]4([O-])CC5=CCO[C@H]6CC(=O)N2[C@H]1[C@H]6[C@H]5C[C@@H]34 (some centres undefined)', 'Muscarinic acetylcholine receptor M4 (Homo sapiens)', '=', 1.19),
  ('C=CC[N+]12CC[C@@]34c5ccccc5N5C(=O)C[C@@H]6OCC=C(C1)[C@H](C[C@@H]32)[C@@H]6[C@H]54 (some centres undefined)', 'Muscarinic acetylcholine receptor M4 (Homo sapiens)', '=', 1.19),
  ('COc1cc2c(cc1OC)[C@@]13CC[N+]4(N)CC5=CCO[C@H]6CC(=O)N2[C@H]1[C@H]6[C@H]5C[C@@H]34 (some centres undefined)', 'Muscarinic acetylcholine receptor M4 (Homo sapiens)', '=', 2),
  ('O=C1C[C@@H]2OCC=C3C[N+]4(Cc5ccc(-c6ccccc6)cc5)CC[C@]56c7ccccc7N1[C@H]5[C@H]2[C@H]3C[C@@H]64 (some centres undefined)', 'Muscarinic acetylcholine receptor M4 (Homo sapiens)', '=', 2),
  ('COc1cc2c(cc1OC)[C@@]13CCN4CC5=CCO[C@H]6CC(=O)N2[C@H]1[C@H]6[C@H]5C[C@H]43', 'Muscarinic acetylcholine receptor M4 (Homo sapiens)', '=', 0.8),
  ('N#CC[N+]12CC[C@@]34c5ccccc5N5C(=O)C[C@@H]6OCC=C(C1)[C@H](C[C@@H]32)[C@@H]6[C@H]54 (some centres undefined)', 'Muscarinic acetylcholine receptor M4 (Homo sapiens)', '>', 2),
  ('CC[N+]12CC[C@@]34c5ccccc5N5C(=O)C[C@@H]6OCC=C(C1)[C@H](C[C@@H]32)[C@@H]6[C@H]54 (some centres undefined)', 'Muscarinic acetylcholine receptor M4 (Homo sapiens)', '>', 2),
  ('C#CC[N+]12CC[C@@]34c5ccccc5N5C(=O)C[C@@H]6OCC=C(C1)[C@H](C[C@@H]32)[C@@H]6[C@H]54 (some centres undefined)', 'Muscarinic acetylcholine receptor M4 (Homo sapiens)', '=', 2),
  ('C[N+]12CC[C@@]34c5ccccc5N5C(=O)C[C@@H]6OCC=C(C1)[C@H](C[C@@H]32)[C@@H]6[C@H]54 (some centres undefined)', 'Muscarinic acetylcholine receptor M4 (Homo sapiens)', '>', 2),
  ('O=C1C[C@@H]2OCC=C3C[N+]4(Cc5ccc6ccccc6c5)CC[C@]56c7ccccc7N1[C@H]5[C@H]2[C@H]3C[C@@H]64 (some centres undefined)', 'Muscarinic acetylcholine receptor M4 (Homo sapiens)', '=', 2),
  ('O=C1C[C@@H]2OCC=C3C[N+]4(Cc5cccc([N+](=O)[O-])c5)CC[C@]56c7ccccc7N1[C@H]5[C@H]2[C@H]3C[C@@H]64 (some centres undefined)', 'Muscarinic acetylcholine receptor M4 (Homo sapiens)', '>', 2),
  ('C=CC[N+]12CC[C@@]34c5ccccc5N5/C=C6/[C@H]7C[C@H]8[C@@]9(CC[N@@+]8(CC=C)C/C7=C/CO)c7ccccc7N(/C=C(/[C@@H](C[C@@H]31)/C(=C\CO)C2)[C@H]54)[C@@H]69 (some centres undefined)', 'Muscarinic acetylcholine receptor M4 (Homo sapiens)', '=', 1.19),
  ('COc1cc2c(cc1OC)[C@@]13CC[N+]4(C)CC5=CCO[C@H]6CC(=O)N2[C@H]1[C@H]6[C@H]5C[C@@H]34 (some centres undefined)', 'Muscarinic acetylcholine receptor M4 (Homo sapiens)', '=', 1.19),
  ('COc1cc2c(cc1OC)[C@@]13CC[N+]4(CCl)CC5=CCO[C@H]6CC(=O)N2[C@H]1[C@H]6[C@H]5C[C@@H]34 (some centres undefined)', 'Muscarinic acetylcholine receptor M4 (Homo sapiens)', '=', 1.19);
